assay: Stability against liver microsomes; assay type: in vitro ADME, human; conditions: 2 μM, 37° C., 24 h
I'd be grateful if you could share measured % degradation in 24 h when incubated with liver microsomes for these entries.
Numbers only, in %.

The examples below pair each entry with its known result.
CCc1cc(OC)ccc1-c1ccc(CC(NC(=O)[C@H](CC(=O)O)NC(=O)[C@H](CO)NC(=O)[C@@H](NC(=O)C(C)(Cc2ccccc2F)NC(=O)[C@@H](NC(=O)CNC(=O)[C@H](CCC(N)=O)NC(=O)[C@H](CO)NC(=O)[C@@H](N)Cc2c[nH]cn2)[C@@H](C)O)[C@@H](C)O)C(=O)NC(Cc2ccc(-c3ccccc3F)cc2)C(N)=O)cc1 (single isomer, unassigned) [compound 23] | 82
CCc1cc(OC)ccc1-c1ccc(CC(NC(=O)[C@H](CC(=O)O)NC(=O)[C@H](CO)NC(=O)[C@@H](NC(=O)C(C)(Cc2ccccc2F)NC(=O)[C@@H](NC(=O)CNC(=O)[C@H](CCC(N)=O)NC(=O)C2(NC(=O)[C@@H](N)Cc3c[nH]cn3)CC2)[C@@H](C)O)[C@@H](C)O)C(=O)NC(Cc2ccc(-c3ccccc3C)cc2)C(N)=O)cc1 (single isomer, unassigned) [compound 33] | 33
CCc1cc(OC)ccc1-c1ccc(CC(NC(=O)[C@H](CC(=O)O)NC(=O)[C@H](CO)NC(=O)[C@@H](NC(=O)[C@H](Cc2ccccc2)NC(=O)[C@@H](NC(=O)CNC(=O)[C@H](CCC(N)=O)NC(=O)C(C)(C)NC(=O)[C@@H](N)Cc2c[nH]cn2)[C@@H](C)O)[C@@H](C)O)C(=O)NC(Cc2ccc(-c3ccccc3F)cc2)C(N)=O)cc1 (single isomer, unassigned) [compound 15] | 85

Give one value of % degradation in 24 h when incubated with liver microsomes per listed compound.
1. CCc1cc(OC)ccc1-c1ccc(CC(NC(=O)[C@H](CC(=O)O)NC(=O)[C@H](CO)NC(=O)[C@@H](NC(=O)[C@H](Cc2ccccc2)NC(=O)[C@@H](NC(=O)CNC(=O)[C@H](CCC(N)=O)NC(=O)C2(NC(=O)[C@@H](N)Cc3c[nH]cn3)CC2)[C@@H](C)O)[C@@H](C)O)C(=O)NC(Cc2ccc(-c3ccccc3F)cc2)C(N)=O)cc1 (single isomer, unassigned) [compound 19]
2. CCc1cc(OC)ccc1-c1ccc(CC(NC(=O)[C@H](CC(=O)O)NC(=O)[C@H](CO)NC(=O)[C@@H](NC(=O)[C@H](Cc2ccccc2)NC(=O)[C@@H](NC(=O)CNC(=O)[C@H](CCC(N)=O)NC(=O)C2(NC(=O)[C@@H](N)Cc3c[nH]cn3)CC2)[C@@H](C)O)[C@@H](C)O)C(=O)NC(Cc2ccc(-c3ccccc3C(F)(F)F)cc2)C(N)=O)cc1 (single isomer, unassigned) [compound 20]
3. CCc1cc(OC)ccc1-c1ccc(CC(NC(=O)[C@H](CC(=O)O)NC(=O)[C@H](CO)NC(=O)[C@@H](NC(=O)[C@H](Cc2ccccc2)NC(=O)[C@@H](NC(=O)CNC(=O)[C@H](CCC(N)=O)NC(=O)[C@H](CO)NC(=O)[C@@H](N)Cc2c[nH]cn2)[C@@H](C)O)[C@@H](C)O)C(=O)NC(Cc2ccc(-c3ccccc3C)nc2)C(N)=O)cc1 (single isomer, unassigned) [compound 6]
4. CCc1cc(OC)ccc1-c1ccc(CC(NC(=O)[C@H](CC(=O)O)NC(=O)[C@H](CO)NC(=O)[C@@H](NC(=O)[C@H](Cc2ccccc2)NC(=O)[C@@H](NC(=O)CNC(=O)[C@H](CCC(N)=O)NC(=O)[C@H](CO)NC(=O)[C@@H](N)Cc2c[nH]cn2)[C@@H](C)O)[C@@H](C)O)C(=O)NC(Cc2ccc(-c3ccccc3F)cc2)C(N)=O)cc1 (single isomer, unassigned) [compound 7]

RESULT:
84
80
100
100
